Assay info: Inhibition of radiolabeled neuropeptide FF binding to neuropeptide FF receptors in rat spinal cord
Parameters: concentration or dose not given beside the values
Condition: concentration not given here
Task for the reader: assign each of the following molecules its reported inhibition.
Write the answer as a number in %, unit excluded.

Data request: Identify the reported inhibition for the following entry. CC(C)[C@H]1CC1(NC(=O)[C@H](Cc1ccccc1)NC(=O)[C@@H](C)NC(=O)CNC(=O)[C@@H](N)Cc1ccc(O)cc1)C(=O)N[C@@H](CCCN=C(N)N)C(=O)N[C@@H](Cc1ccccc1)C(N)=O (single isomer, unassigned)
Data returned: 27

Data request: Please give measured inhibition of the following entry: CC(C)[C@H]1CC1(NC(=O)[C@H](Cc1ccccc1)NC(=O)[C@@H](C)NC(=O)[C@H](C)NC(=O)[C@@H](N)Cc1ccc(O)cc1)C(=O)N[C@@H](CCCN=C(N)N)C(=O)N[C@@H](Cc1ccccc1)C(N)=O (single isomer, unassigned; form 1)
Data returned: 32

Data request: Entry CC(C)[C@H]1CC1(NC(=O)[C@H](Cc1ccccc1)NC(=O)[C@@H](C)NC(=O)[C@H](C)NC(=O)[C@@H](N)Cc1ccc(O)cc1)C(=O)N[C@@H](CCCN=C(N)N)C(=O)N[C@@H](Cc1ccccc1)C(N)=O (single isomer, unassigned; form 2) needs its inhibition filled in; supply it.
Data returned: 27

Data request: Identify measured inhibition associated with CC(C)[C@H]1CC1(NC(=O)[C@H](Cc1ccccc1)NC(=O)CNC(=O)CNC(=O)[C@@H](N)Cc1ccc(O)cc1)C(=O)N[C@@H](CCCN=C(N)N)C(=O)N[C@@H](Cc1ccccc1)C(N)=O (single isomer, unassigned)
Data returned: 57
